For each record, write down the corresponding %Inh.
# Test system: PIK3CB
# assay.conditions: concentration: 1 μM, replicates: in singlicate; n = 1;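 note: KINOMEscan kinase panel screen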
Report the value in % with no unit label.

Answer with the recorded %Inh for the compound listed here: CS(=O)(=O)CCNCc1nc(-c2ccc3ncnc(Nc4ccc(OCc5cccc(F)c5)c(Cl)c4)c3c2)cs1.Cl
0

Answer with the recorded %Inh for the compound listed here: FC(F)(F)c1cc(Nc2nccc(-c3c(-c4ccc(Cl)cc4)nn4ncccc34)n2)ccc1Cl
0

Answer with the recorded %Inh for the compound listed here: Cn1ccc2ncnc(Nc3ccc(Oc4cccc(Cl)c4)c(Cl)c3)c21
60

Answer with the recorded %Inh for the compound listed here: Nc1nccc2scc(-c3ccc4c(c3)CCN4C(=O)Cc3cc(F)ccc3F)c12
0

* * *

# Tested on: CDK8
# assay.conditions: concentration: 1 μM, replicates: in singlicate; n = 1
observed.property: %Inh (%)
Report the value in % with no unit label.

Answer with the recorded %Inh for the compound listed here: Fc1cccc(COc2ccc(Nc3ncnc4sc(-c5ccc[nH]5)cc34)cc2Cl)c1 [GW707818]
31

Answer with the recorded %Inh for the compound listed here: CS(=O)(=O)CCNCc1ccc(-c2ccc3ncnc(Nc4ccc(OCc5ccccc5)c(Cl)c4)c3c2)o1.Cl [GW574783]
43

Answer with the recorded %Inh for the compound listed here: CC(C)(C)c1ccc(-n2cnc3c(N)ncnc32)cc1 [SKF-97263]
0

Answer with the recorded %Inh for the compound listed here: C[C@@H]1CCN(C(=O)CO)C[C@@H]1N(C)c1ncnc2[nH]ccc12
0

Answer with the recorded %Inh for the compound listed here: O=C(Nc1n[nH]c2nc(-c3ccco3)c(Br)cc12)c1ccc(CN2CCCC2)cc1.O=C(O)[C@H](O)[C@@H](O)C(=O)O [SB-742352]
0

Answer with the recorded %Inh for the compound listed here: Oc1ccc2ncnc(Nc3ccc(OCc4ccccc4)cc3)c2c1 [GI262866]
21

Answer with the recorded %Inh for the compound listed here: COc1cc2c(Nc3cccc(NC(=O)c4ccccc4)c3)ncnc2cc1OCCCN1CCOCC1 [GSK223810]
14

Answer with the recorded %Inh for the compound listed here: CC(=O)Nc1n[nH]c2ncc(-c3ccccc3)cc12 [SB-548492]
0

Answer with the recorded %Inh for the compound listed here: O=C(Nc1ccccc1F)NC1CCN(c2ccnc(Nc3ccc(F)cc3)n2)C1 (stereo not drawn) [GSK1379722]
22

* * *

# System: RIOK1
# assay.conditions: concentration: 1 μM, replicates: in singlicate; n = 1
Hi! Just check whether %Inh is below 20%. Below gives y, equal or above gives n.

Does CCCc1ccc(S(=O)(=O)NC2CCN(c3ccnc(Nc4ccc(OC)cc4)n3)C2)cc1 (stereo not shown) have %Inh strictly under 20%?
y

Does CNc1nccc(-c2c(-c3ccc(F)cc3)ncn2C2CCN(C)CC2)n1 have %Inh strictly under 20%?
y

Does Cc1cc(N2CCC(NS(=O)(=O)c3ccc(F)cc3)CC2)nc(Nc2cccc(C#N)c2)n1.O=C(O)C(F)(F)F have %Inh strictly under 20%?
n

Does COC(=O)c1cccc(NC(=O)NCCNc2ccnc(Nc3ccc(F)cc3)n2)c1 have %Inh strictly under 20%?
n

Does COc1ccc(NC(=O)c2ccc(-c3cc(-c4nnc(C)o4)ccc3C)cc2)cc1 have %Inh strictly under 20%?
y

Does Cn1ccc2ncnc(Nc3ccc(Oc4cccc(Cl)c4)c(Cl)c3)c21 have %Inh strictly under 20%?
y

Recorded values, source paper PMC5540273.
